Reference source: patent US20240042045A1

system: 4T1 cells; assay: In vitro cytotoxicity in 4T1 cells (MTS assay); format: cell-based, murine; settings: 48 h
QUANTITY_MEASURED: pIC50
Expect pIC50 as a plain number equal to -log10 of the molar concentration.

Give pIC50 for N.N.O=C([O-])C1(C(=O)[O-])CCC1.[Pt+2]
6.04

----------
test system: Panc02 cells; assay: In vitro cytotoxicity in Panc02 cells (MTS assay); type: cell-based, murine; settings: Panc02 cells, 48 h; read-out: IC50
QUANTITY_MEASURED: IC50 (µM)
Enter your answer as a number in µM; do not include the unit.

INSERT INTO results (compound, tested_target, quantity_measured, obs_value) VALUES
  ('O=C1[O][Pt]2([NH][C@@H]3CCCC[C@H]3[NH]2)[O]C1=O [OxPt, oxaliplatin]', 'Panc02 cells', 'IC50', 14);

Then there is this compound:
Give IC50 for CCc1c2c(nc3ccc(O)cc13)-c1cc3c(c(=O)n1C2)COC(=O)[C@]3(O)CC [SN38]
0.17
